assay: Microsomal stability in human liver microsomes assessed as fraction unbound measured upto 60 mins in presence of NADPH regenerating system by LC-MS analysis; assay type: ADME, Microsome; settings: 1 h
endpoint-name: Fu
Form: value (number only, do not type unit).

Would you please look over these solved cases?
[[record]]
smiles_notation = "Cc1cc(C)cc(Oc2cccc(-c3c(C)nnn3C3CCN(CCN(C)C)CC3)n2)c1"
value = 0.14

[[record]]
smiles_notation = "Cc1cc(C)cc(Oc2cccc(-c3c(C)nnn3C3CCNCC3)n2)c1"
value = 0.13

[[record]]
smiles_notation = "Cc1cc(C)cc(Nc2nccc(-c3c(-c4ccc(C(F)(F)F)cc4)ncn3C3CCN(CCN)CC3)n2)c1"
value = 0.08

[[record]]
smiles_notation = "Cc1nnn(C2CCNCC2)c1-c1cccc(Oc2cc(Br)cc(Br)c2)n1"
value = 0.09

[[record]]
smiles_notation = "Cc1nnn(C2CCNCC2)c1-c1cccc(Oc2cc(Cl)cc(Cl)c2)n1"
value = 0.11


Task: Form field: reported Fu of Cc1nnn(C2CCN(CCN(C)C)CC2)c1-c1cccc(Oc2cc(Br)ccc2Br)n1
Output: 0.13

Task: Form field: reported Fu of Cc1nnn(C2CCNCC2)c1-c1cccc(Oc2cc(C3CC3)cc(C3CC3)c2)n1
Output: 0.12
